Test system: rCaCh
procedure-text: CVS / cardio tox rCaCh
Format: binding, rat
Here, each record is paired with measured Cardio tox rCaCh IC50 (µM) data.

Can you look up Cardio tox rCaCh IC50 (µM) on rCaCh for "Cc1c(-c2cn3cc(Oc4ccc(OC(F)(F)F)cc4)ccc3n2)[nH]c2ccccc2c1=O" ?
3.8

Can you look up Cardio tox rCaCh IC50 (µM) on rCaCh for "Cc1c(-c2nc3ccc(-c4nc(C(F)(F)F)cs4)cn3n2)[nH]c2ccccc2c1=O" ?
> 10

Can you look up Cardio tox rCaCh IC50 (µM) on rCaCh for "Cc1c(-c2nc3ccc(-c4cn(CC(F)(F)F)nn4)cn3n2)[nH]c2ccccc2c1=O" ?
>10, >10, >10

Can you look up Cardio tox rCaCh IC50 (µM) on rCaCh for "Cc1c(-c2cc3ccc(-c4ccc(OC(F)(F)F)cc4)cn3n2)[nH]c2ccccc2c1=O" ?
>10, >10, >10
